Test system: HCT-116 colon
Assay: NCI-60 one-dose screen, 48 h (100 = growth as untreated, 0 = no growth, -100 = all killed)
Conditions: 10 µM unless noted
About 83,000 compounds went through this panel and 20% of them were active in at least one assay; those are over-represented in the sample as a whole.
Recorded metric: growth (%)

| Chem smiles | Experimental system | Numeric result |
| --- | --- | --- |
| O=C1/C(=C/c2ccccc2Br)COc2ccc(O)c(O)c21 | HCT-116 colon | -3.23 |
| CCOC(=O)c1ccc2[nH]c(O)c(C(=Nc3ccc(N(C)C(=O)CN4CCN(C)CC4)cc3)c3ccccc3)c2c1 | HCT-116 colon | -38.8 |
| COc1ccc(-c2nn(-c3ccccc3)cc2/C=C2/SC(=S)N(C)C2=O)cc1 | HCT-116 colon | 31 |
| CN(C)c1ccc(/C=C/C(=O)c2ccc(-n3cc(CN4CCN(c5cc6c(cc5F)c(=O)c(C(=O)O)cn6C5CC5)CC4)nn3)cc2)cc1 | HCT-116 colon | -10.3 |
| C/C(=N/O)c1ccc(F)cc1 | HCT-116 colon | 51.9 |
